Tested on: albino mouse
Test summary: Antagonism in the albino mouse of reserpine (preventive and curative ptosis/sedation)
Type: in vivo
Recorded conditions: reserpine 2mg/kg sc.; drug per os; Examples 28, 29: 50 to 300 mg/kg
Observation type: Reserpine antagonism, Curative Sedation ED50

Sample answers from the record:
>  <Chem smiles>
O=C(CCCN1CCC(c2ccccc2)(c2ccccc2)CC1)c1ccccc1

>  <Result>
.phi. (no effect)

$$$$
>  <Chem smiles>
c1ccc(CCN2CCC(c3ccccc3)(c3ccccc3)CC2)cc1

>  <Result>
(+)

$$$$
>  <Chem smiles>
O=C(CCCN1CCC(c2ccccc2)(c2ccccc2)CC1)c1ccc(F)cc1

>  <Result>
.phi. (no effect)

$$$$
>  <Chem smiles>
CC(=O)CCN1CCC(c2ccccc2)(c2ccccc2)CC1

>  <Result>
~ 50 mg/kg

$$$$

From here, focus on the item given below.
Given OCCCN1CCC(c2ccccc2)(c2ccccc2)CC1 , state its recorded Reserpine antagonism, Curative Sedation ED50. .phi. (no effect)
